test system: 762968-020-R-J2-PDC spheroids viability; test: Anticancer human tumor 762968-020-R-J2-PDC patient-derived colon carcinoma cell line growth inhibition [TAK]; settings: second compound 30 µM; first compound 0.1 µM; stronger effect = lower value; spheroids with HUVEC and MSC
viability, T/C less than 70% is Satisfied; viability, T/C greater than or equal to 70% is Not satisfied.

- COMPOUND: "CC(C)n1nc(-c2ccc3oc(N)nc3c2)c2c(N)ncnc21 + CC(C)NCC(C(=O)N1CCN(c2ncnc3c2C(C)CC3O)CC1)c1ccc(Cl)cc1"
  GROUP: "Satisfied"
- COMPOUND: "COC1CC2CCC(C)C(O)(O2)C(=O)C(=O)N2CCCCC2C(=O)OC(C(C)CC2CCC(OCCO)C(OC)C2)CC(=O)C(C)C=C(C)C(O)C(OC)C(=O)C(C)CC(C)C=CC=CC=C1C (stereo unspecified) + CC(C)NCC(C(=O)N1CCN(c2ncnc3c2C(C)CC3O)CC1)c1ccc(Cl)cc1"
  GROUP: "Not satisfied"
- COMPOUND: "Cc1nc(NC(=O)N2CCCC2C(N)=O)sc1-c1ccnc(C(C)(C)C(F)(F)F)c1 (stereo unspecified) + CC(C)NCC(C(=O)N1CCN(c2ncnc3c2C(C)CC3O)CC1)c1ccc(Cl)cc1"
  GROUP: "Not satisfied"
- COMPOUND: "CC(C)CC(NC(=O)CNC(=O)c1cc(Cl)ccc1Cl)B1OC(=O)CC(CC(=O)O)(C(=O)O)O1 (stereo unspecified) + CC(C)NCC(C(=O)N1CCN(c2ncnc3c2C(C)CC3O)CC1)c1ccc(Cl)cc1"
  GROUP: "Not satisfied"
- COMPOUND: "CC(C)(C)c1nc(-c2cccc(NS(=O)(=O)c3c(F)cccc3F)c2F)c(-c2ccnc(N)n2)s1 + CC(C)NCC(C(=O)N1CCN(c2ncnc3c2C(C)CC3O)CC1)c1ccc(Cl)cc1"
  GROUP: "Not satisfied"

====

A collection of compounds and their measured viability, T/C
system: 762968-020-R-J2-PDC spheroids viability; assay: Anticancer human tumor 762968-020-R-J2-PDC cell line growth inhibition [TAK]; conditions: second compound 0.949 µM; first compound 0.00316 µM; stronger effect = lower value; spheroids with HUVEC and MSC;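 note: spheroids exposed to drug for 7 days before readout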;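 for viability, T/C: 100% = DMSO vehicle control wells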

- COMPOUND: "CC(C)n1nc(-c2ccc3oc(N)nc3c2)c2c(N)ncnc21 + CC(C)NCC(C(=O)N1CCN(c2ncnc3c2C(C)CC3O)CC1)c1ccc(Cl)cc1"
  MEASURED_TARGET: "762968-020-R-J2-PDC spheroids viability"
  READOUT_UNIT: "%"
  viability, T/C: 99.9
- COMPOUND: "COC1CC2CCC(C)C(O)(O2)C(=O)C(=O)N2CCCCC2C(=O)OC(C(C)CC2CCC(OCCO)C(OC)C2)CC(=O)C(C)C=C(C)C(O)C(OC)C(=O)C(C)CC(C)C=CC=CC=C1C (stereo not given) + CC(C)NCC(C(=O)N1CCN(c2ncnc3c2C(C)CC3O)CC1)c1ccc(Cl)cc1"
  MEASURED_TARGET: "762968-020-R-J2-PDC spheroids viability"
  READOUT_UNIT: "%"
  viability, T/C: 111
- COMPOUND: "CC(C)CC(NC(=O)CNC(=O)c1cc(Cl)ccc1Cl)B1OC(=O)CC(CC(=O)O)(C(=O)O)O1 (stereo not given) + CC(C)NCC(C(=O)N1CCN(c2ncnc3c2C(C)CC3O)CC1)c1ccc(Cl)cc1"
  MEASURED_TARGET: "762968-020-R-J2-PDC spheroids viability"
  READOUT_UNIT: "%"
  viability, T/C: 97.1
- COMPOUND: "CC(C)CC(NC(=O)C(Cc1ccccc1)NC(=O)c1cnccn1)B(O)O (stereo not given) + CC(C)NCC(C(=O)N1CCN(c2ncnc3c2C(C)CC3O)CC1)c1ccc(Cl)cc1"
  MEASURED_TARGET: "762968-020-R-J2-PDC spheroids viability"
  READOUT_UNIT: "%"
  viability, T/C: 105
- COMPOUND: "COc1c(OCCCN2CCOCC2)ccc2c3n(c(=NC(=O)c4cnc(N)nc4)nc12)CCN3 + CC(C)NCC(C(=O)N1CCN(c2ncnc3c2C(C)CC3O)CC1)c1ccc(Cl)cc1"
  MEASURED_TARGET: "762968-020-R-J2-PDC spheroids viability"
  READOUT_UNIT: "%"
  viability, T/C: 101

====

A collection of molecules and their measured pIC50
Test system: 762968-020-R-J2-PDC spheroids viability
Assay: Anticancer human tumor 762968-020-R-J2-PDC cell line growth inhibition [TAK];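 note: spheroids exposed to drug for 7 days before readout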
Details: curve of first compound; second compound 9.49 µM; spheroids with HUVEC and MSC
Procedure: Combinatorial screen of targeted agents with TAK-243 and ipatasertib in multi-cell type tumor spheroids […] Compounds. […] If the clinical Cmax for an agent had not been determined, the highest concentration tested was 10 microM. NCI60 Cell Culture. […] The optimal seeding densities for each of the cell lines at each time point assessed were determined prior to performing the concentration response studies. […]
pIC50: −log10 of the molar value.

- MOLECULE: "Cc1nc(NC(=O)N2CCCC2C(N)=O)sc1-c1ccnc(C(C)(C)C(F)(F)F)c1 (stereo not given) + CC(C)NCC(C(=O)N1CCN(c2ncnc3c2C(C)CC3O)CC1)c1ccc(Cl)cc1"
  pIC50: "< 5.00"
- MOLECULE: "CC(C)CC(NC(=O)C(Cc1ccccc1)NC(=O)c1cnccn1)B(O)O (stereo not given) + CC(C)NCC(C(=O)N1CCN(c2ncnc3c2C(C)CC3O)CC1)c1ccc(Cl)cc1"
  pIC50: "< 8.00"
- MOLECULE: "Cn1cnc2c(F)c(Nc3ccc(Br)cc3Cl)c(C(=O)NOCCO)cc21 + CC(C)NCC(C(=O)N1CCN(c2ncnc3c2C(C)CC3O)CC1)c1ccc(Cl)cc1"
  pIC50: "< 5.52"
- MOLECULE: "COC1CC2CCC(C)C(O)(O2)C(=O)C(=O)N2CCCCC2C(=O)OC(C(C)CC2CCC(OCCO)C(OC)C2)CC(=O)C(C)C=C(C)C(O)C(OC)C(=O)C(C)CC(C)C=CC=CC=C1C (stereo not given) + CC(C)NCC(C(=O)N1CCN(c2ncnc3c2C(C)CC3O)CC1)c1ccc(Cl)cc1"
  pIC50: "< 7.00"
- MOLECULE: "CCCS(=O)(=O)Nc1ccc(F)c(C(=O)c2c[nH]c3ncc(-c4ccc(Cl)cc4)cc23)c1F + CC(C)NCC(C(=O)N1CCN(c2ncnc3c2C(C)CC3O)CC1)c1ccc(Cl)cc1"
  pIC50: "< 4.00"
- MOLECULE: "CC(C)(C)c1nc(-c2cccc(NS(=O)(=O)c3c(F)cccc3F)c2F)c(-c2ccnc(N)n2)s1 + CC(C)NCC(C(=O)N1CCN(c2ncnc3c2C(C)CC3O)CC1)c1ccc(Cl)cc1"
  pIC50: "< 5.00"
- MOLECULE: "COc1c(OCCCN2CCOCC2)ccc2c3n(c(=NC(=O)c4cnc(N)nc4)nc12)CCN3 + CC(C)NCC(C(=O)N1CCN(c2ncnc3c2C(C)CC3O)CC1)c1ccc(Cl)cc1"
  pIC50: "< 6.00"
- MOLECULE: "CC(C)CC(NC(=O)CNC(=O)c1cc(Cl)ccc1Cl)B1OC(=O)CC(CC(=O)O)(C(=O)O)O1 (stereo not given) + CC(C)NCC(C(=O)N1CCN(c2ncnc3c2C(C)CC3O)CC1)c1ccc(Cl)cc1"
  pIC50: "< 7.00"
- MOLECULE: "CC(C)n1nc(-c2ccc3oc(N)nc3c2)c2c(N)ncnc21 + CC(C)NCC(C(=O)N1CCN(c2ncnc3c2C(C)CC3O)CC1)c1ccc(Cl)cc1"
  pIC50: "< 7.00"
- MOLECULE: "CC(=O)Nc1cccc(-n2c(=O)n(C3CC3)c(=O)c3c(Nc4ccc(I)cc4F)n(C)c(=O)c(C)c32)c1 + CC(C)NCC(C(=O)N1CCN(c2ncnc3c2C(C)CC3O)CC1)c1ccc(Cl)cc1"
  pIC50: 7.75

====

test system: 762968-020-R-J2-PDC spheroids viability; experiment: Anticancer human tumor 762968-020-R-J2-PDC cell line growth inhibition [TAK]; conditions: curve of first compound; second compound 0.3 µM; spheroids with HUVEC and MSC;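 note: spheroids exposed to drug for 7 days before readout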
pIC50: −log10 of the molar value.

- COMPOUND: "Cc1nc(NC(=O)N2CCCC2C(N)=O)sc1-c1ccnc(C(C)(C)C(F)(F)F)c1 (stereo unspecified) + CC(C)NCC(C(=O)N1CCN(c2ncnc3c2C(C)CC3O)CC1)c1ccc(Cl)cc1"
  pIC50: "< 5.00"
- COMPOUND: "CC(C)(C)c1nc(-c2cccc(NS(=O)(=O)c3c(F)cccc3F)c2F)c(-c2ccnc(N)n2)s1 + CC(C)NCC(C(=O)N1CCN(c2ncnc3c2C(C)CC3O)CC1)c1ccc(Cl)cc1"
  pIC50: "< 5.00"
- COMPOUND: "COc1c(OCCCN2CCOCC2)ccc2c3n(c(=NC(=O)c4cnc(N)nc4)nc12)CCN3 + CC(C)NCC(C(=O)N1CCN(c2ncnc3c2C(C)CC3O)CC1)c1ccc(Cl)cc1"
  pIC50: "< 6.00"
- COMPOUND: "CC(C)n1nc(-c2ccc3oc(N)nc3c2)c2c(N)ncnc21 + CC(C)NCC(C(=O)N1CCN(c2ncnc3c2C(C)CC3O)CC1)c1ccc(Cl)cc1"
  pIC50: "< 7.00"
- COMPOUND: "Cn1cnc2c(F)c(Nc3ccc(Br)cc3Cl)c(C(=O)NOCCO)cc21 + CC(C)NCC(C(=O)N1CCN(c2ncnc3c2C(C)CC3O)CC1)c1ccc(Cl)cc1"
  pIC50: 5.63
- COMPOUND: "CC(=O)Nc1cccc(-n2c(=O)n(C3CC3)c(=O)c3c(Nc4ccc(I)cc4F)n(C)c(=O)c(C)c32)c1 + CC(C)NCC(C(=O)N1CCN(c2ncnc3c2C(C)CC3O)CC1)c1ccc(Cl)cc1"
  pIC50: 7.69
